Property: polymerase ribozyme fitness (log ratio); scope: individual variants
B1: TPR 5TU (parent)
chain: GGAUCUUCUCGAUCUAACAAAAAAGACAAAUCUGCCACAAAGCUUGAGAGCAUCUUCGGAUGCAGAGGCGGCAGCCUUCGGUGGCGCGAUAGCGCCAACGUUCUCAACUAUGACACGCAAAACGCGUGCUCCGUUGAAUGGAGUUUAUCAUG

variants of: B1; assay: polymerase ribozyme fitness, log enrichment relative to wild type (log ratio); higher = more active; in vitro selection for triplet polymerase activity
Fewer inactive variants are shown than the library holds.
// return just the number, without any unit appended

| MUTATION ID | polymerase ribozyme fitness (log ratio) |
| --- | --- |
| U45A G84A | -3.44 |
| A3U U6A A39G C96G G124U G141A | -3.93 |
| C57A C76U C85U G92C G126C | -2.15 |

What measured polymerase ribozyme fitness (log ratio) goes with C96U C103U ? -1.25

Now try A41U A49C . -3.83
